- target: T1, human DLL3 (ACRO, DLL3-H52H4) (human, UniProt Q9NYJ7 27-492)
- T1 construct: Bought
- T1 sequence: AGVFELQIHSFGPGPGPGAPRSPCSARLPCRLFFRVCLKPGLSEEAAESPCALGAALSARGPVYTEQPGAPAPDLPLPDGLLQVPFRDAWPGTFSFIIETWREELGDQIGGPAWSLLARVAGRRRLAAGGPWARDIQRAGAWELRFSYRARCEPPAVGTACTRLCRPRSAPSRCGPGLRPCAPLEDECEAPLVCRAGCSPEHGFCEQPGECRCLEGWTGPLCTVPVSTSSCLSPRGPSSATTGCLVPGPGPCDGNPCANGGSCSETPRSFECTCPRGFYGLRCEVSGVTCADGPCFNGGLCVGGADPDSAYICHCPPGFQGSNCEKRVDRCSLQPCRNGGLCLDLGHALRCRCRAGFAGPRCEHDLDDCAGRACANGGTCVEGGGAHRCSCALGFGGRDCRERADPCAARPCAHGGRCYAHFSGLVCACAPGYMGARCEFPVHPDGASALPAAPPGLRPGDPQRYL
- experimentDescription: SPR Biacore 8K, Ab captured on Protein A
Consider the following binders; for each one, report its kon.
Answers are plain numbers, in M⁻¹ s⁻¹.

binder="hu30L3H6 (antibody, human IgG1, kappa, V domains shown) VH: EVRLVQSGAEVKKPGASVKVSCKASGYTFTDYYMNWVRQAPGQSLEWMGIINPYNVDTSYNQKFRGRVTLTVDKSASTAYMELSSLRSEDTAVYYCARYHYGPHLEGYFDVWGQGTTVTVSS VL: DIVMTQSPKSLAVSLGERATINCKASENVGYVSWYQQKPGQSPKLLIYGASNRYTGVPDRFSGSGSATDFTLTISSLQAEDVAVYHCGQSYSYPLTFGQGTKLEIKR" readouttype=kon observedvalue=952000

Now consider a different binder.
Q: Tell me the measured kon of hu110L2H3 (antibody, human IgG1, kappa, V domains shown) VH: EVQLVQSGAEVKKPGASVKVSCKTSGYTFTDYYMNWVRQAPGQSLEWMGIINPYQGGTSYTQKFKGRVTITVDKSASTAYMELSSLRSEDTAVYYCARHFYDSSYLTYSTMDYWGQGTTVTVSS VL: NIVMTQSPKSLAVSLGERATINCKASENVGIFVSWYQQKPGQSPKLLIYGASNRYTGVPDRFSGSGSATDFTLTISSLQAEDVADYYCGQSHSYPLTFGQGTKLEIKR , please.
Ans: 550000
